Entry source: patent US5166208A

Could you please report measured IC50 for the items listed next?
test system: human colon tumor (HCT116); assay: In vitro microdilution inhibition, HCT116; type: cell-based; details: HCT-116, 72 hours, 50% of cells killed
Where a name gives a salt, the structure may show the parent alone.
The reply should contain only the number, in µg/mL.

INPUT: Provide value of IC50 for this record tested with human colon tumor (HCT116): COCOc1cccc2c1C1(CC2)C(=O)c2c(O)c3c(c(O)c2C1=O)C(=O)C(NCCO)=CC3=O (stereo not shown)
OUTPUT: 0.05

INPUT: Now the compound COCOc1cccc2c1C1(CC2)C(=O)c2c(O)c3c(c(O)c2C1=O)C(=O)C(N)=CC3=O (stereo not shown)
OUTPUT: 0.03

INPUT: Can you check CCCCCc1cc2cc3c(c(O)c2c(=O)[nH]1)C1(CC3)C(=O)c2c(O)c3c(c(O)c2C1=O)C(=O)C(NCCN(C)C)=CC3=O (stereo not shown) [Example 25, hydrochloride] next?
OUTPUT: 0.27

###

test system: human colon tumor (HCT116); test: In vitro microdilution inhibition, HCT116; assay type: cell-based; conditions: HCT-116, 72 hours, 50% of cells killed
Counter-ions that a name gives are not always drawn.
Decision: IC50 beneath 1 µg/mL gives true (1); IC50 meeting or exceeding 1 µg/mL gives false (0).

INPUT: Answer whether the compound CCNC1=CC(=O)c2c(O)c3c(c(O)c2C1=O)C(=O)C1(CCc2cccc(O)c21)C3=O (stereo not drawn) [Example 15] has IC50 strictly less than 1 µg/mL
OUTPUT: true (1)

INPUT: Repeat for the following compound: CCSC1=C(SCC)C(=O)c2c(O)c3c(c(O)c2C1=O)C(=O)C1(CCc2cccc(OCOC)c21)C3=O [Example 30]
OUTPUT: false (0)

INPUT: Same again, this time with CCOC(OCC)c1cc2cc3c(c(OCOC)c2c(OC)n1)C1(CC3)C(=O)c2c(O)c3c(c(O)c2C1=O)C(=O)C=CC3=O [Example 9]
OUTPUT: true (1)

INPUT: Next entry: COCOc1cccc2c1C1(CC2)C(=O)c2c(O)c3c(c(O)c2C1=O)C(=O)C(OC)=CC3=O (stereo not drawn) [Example 5]
OUTPUT: true (1)

INPUT: Field entry: CN(C)CCNC1=CC(=O)c2c(O)c3c(c(O)c2C1=O)C(=O)C1(CCc2cccc(O)c21)C3=O (stereo not drawn) [Example 24, hydrochloride]
OUTPUT: true (1)

INPUT: Another compound: O=C1C=CC(=O)c2c(O)c3c(c(O)c21)C(=O)C1(CCc2ccccc21)C3=O [Example 4]
OUTPUT: true (1)

INPUT: # iterate: COCOc1cccc2c1C1(CC2)C(=O)c2c(O)c3c(c(O)c2C1=O)C(=O)C(NCC(=O)O)=CC3=O (stereo not drawn) [Example 29]
OUTPUT: true (1)

INPUT: Next record, please: COCOc1cccc2c1C1(CC2)C(=O)c2c(O)c3c(c(O)c2C1=O)C(=O)C(NCC(O)c1ccccc1)=CC3=O (stereo not drawn) [Example 17]
OUTPUT: false (0)

INPUT: Repeat for the following compound: COCOc1cccc2c1C1(CC2)C(=O)c2c(O)c3c(c(O)c2C1=O)C(=O)C(SCCO)=CC3=O (stereo not drawn) [Example 33]
OUTPUT: false (0)

INPUT: What would you report for COCOc1cccc2c1C1(CC2)C(=O)c2c(O)c3c(c(O)c2C1=O)C(=O)C(Nc1ccc(C(=O)O)cc1)=CC3=O (stereo not drawn) [Example 19] ?
OUTPUT: false (0)

INPUT: Follow-up entry: CCCCCc1cc2cc3c(c(O)c2c(=O)[nH]1)C1(CC3)C(=O)c2c(O)c3c(c(O)c2C1=O)C(=O)C(NCC)=CC3=O (stereo not drawn) [Example 23]
OUTPUT: true (1)

INPUT: # iterate: CCCCCc1cc2cc3c(c(O)c2c(=O)[nH]1)C1(CC3)C(=O)c2c(O)c3c(c(O)c2C1=O)C(=O)C=CC3=O [Example 8]
OUTPUT: false (0)

INPUT: Next compound: CCCCCc1cc2cc3c(c(OCOC)c2c(OC)n1)C1(CC3)C(=O)c2c(O)c3c(c(O)c2C1=O)C(=O)C=CC3=O [Example 7]
OUTPUT: false (0)

INPUT: Okay, and COCOc1cccc2c1C1(CC2)C(=O)c2c(O)c3c(c(O)c2C1=O)C(=O)C(Nc1ccc(O)cc1)=CC3=O (stereo not drawn) [Example 21] ?
OUTPUT: false (0)

INPUT: Now this one: COCOc1cccc2c1C1(CC2)C(=O)c2c(O)c3c(c(O)c2C1=O)C(=O)C(Nc1ccccc1)=CC3=O (stereo not drawn) [Example 18]
OUTPUT: true (1)

###

tested on: human colon tumor (HCT116); experiment: In vitro microdilution inhibition, HCT116; type: cell-based; details: HCT-116, 72 hours, 50% of cells killed
Kindly supply the reported IC50 values for the records listed here.
Write the answer as a number in µg/mL, unit excluded.

INPUT: Would you kindly share the measured IC50 for COC1=CC(=O)c2c(O)c3c(c(O)c2C1=O)C(=O)C1(CCc2cccc(O)c21)C3=O (stereo not shown) ?
OUTPUT: 1.6

INPUT: Same for COCOc1cccc2c1C1(CC2)C(=O)c2c(O)c3c(c(O)c2C1=O)C(=O)C(N[C@@H](CC(N)=O)C(=O)O)=CC3=O (stereo partly shown)
OUTPUT: 1.23

###

tested on: human colon carcinoma cell line (Moser); experiment: In vitro microdilution inhibition, Moser; type: cell-based; conditions: 72 hours, 50% of cells killed
// assign 1 (yes) if IC50 falls strictly below 3 µg/mL, else 0 (no) (ties count as 0 (no))

INPUT: In plain terms, does CNC1=CC(=O)c2c(O)c3c(c(O)c2C1=O)C(=O)C1(CCc2cccc(OCOC)c21)C3=O (stereo not shown) come in under 3 µg/mL for IC50?
OUTPUT: 1 (yes)

INPUT: Please do the same for `CCOC(OCC)c1cc2cc3c(c(OCOC)c2c(OC)n1)C1(CC3)C(=O)c2c(O)c3c(c(O)c2C1=O)C(=O)C=CC3=O` as well.
OUTPUT: 0 (no)

INPUT: Subsequent entry: `CCCCCc1cc2cc3c(c(O)c2c(=O)[nH]1)C1(CC3)C(=O)c2c(O)c3c(c(O)c2C1=O)C(=O)C=CC3=O`
OUTPUT: 0 (no)

INPUT: Further, for COCOc1cccc2c1C1(CC2)C(=O)c2c(O)c3c(c(O)c2C1=O)C(=O)C(Nc1cccc(C(=O)O)c1)=CC3=O (stereo not shown) ?
OUTPUT: 0 (no)

INPUT: // query: `COCOc1cccc2c1C1(CC2)C(=O)c2c(O)c3c(c(O)c2C1=O)C(=O)C=CC3=O`
OUTPUT: 1 (yes)

INPUT: Moving on to `CCCCCc1cc2cc3c(c(OCOC)c2c(OC)n1)C1(CC3)C(=O)c2c(O)c3c(c(O)c2C1=O)C(=O)C=CC3=O`
OUTPUT: 0 (no)

###

tested on: human colon tumor (HCT116); test: In vitro microdilution inhibition, HCT116; type: cell-based; settings: HCT-116, 72 hours, 50% of cells killed
endpoint: IC50 (µg/mL)
Numbers only; they are read as µg/mL.

INPUT: Dear colleague, I am looking for the recorded IC50 of the following compound: `O=C1C=CC(=O)c2c(O)c3c(c(O)c21)C(=O)C1(CCc2cccc(O)c21)C3=O`
OUTPUT: 1.13

INPUT: Entry to check: CNC1=CC(=O)c2c(O)c3c(c(O)c2C1=O)C(=O)C1(CCc2cccc(OCOC)c21)C3=O (stereo not shown)
OUTPUT: 0.03

INPUT: What would you report for CCNC1=CC(=O)c2c(O)c3c(c(O)c2C1=O)C(=O)C1(CCc2cccc(OCOC)c21)C3=O (stereo not shown) ?
OUTPUT: 0.03

INPUT: Also, COCOc1cccc2c1C1(CC2)C(=O)c2c(O)c3c(c(O)c2C1=O)C(=O)C(Sc1ccccc1)=CC3=O (stereo not shown) please.
OUTPUT: 78

###

tested on: human colon tumor (HCT116); assay: In vitro microdilution inhibition, HCT116; type: cell-based; details: HCT-116, 72 hours, 50% of cells killed
Kindly state IC50 for each of the entries shown.

INPUT: What does the data say about its IC50? Entry: `O=C1C(Sc2ccccc2)=C(Sc2ccccc2)C(=O)c2c(O)c3c(c(O)c21)C(=O)C1(CCc2cccc(O)c21)C3=O`
OUTPUT: > 16 µg/mL

INPUT: # iterate: N=C(N)NCCC[C@H](NC1=CC(=O)c2c(O)c3c(c(O)c2C1=O)C(=O)C1(CCc2cccc(O)c21)C3=O)C(=O)O (stereo partly shown)
OUTPUT: 71 µg/mL

INPUT: Param item: `COCOc1cccc2c1C1(CC2)C(=O)c2c(O)c3c(c(O)c2C1=O)C(=O)C=CC3=O`
OUTPUT: 0.25 µg/mL

INPUT: Another molecule to look at: COCOc1cccc2c1C1(CC2)C(=O)c2c(O)c3c(c(O)c2C1=O)C(=O)C(NCC(F)(F)F)=CC3=O (stereo not shown)
OUTPUT: 0.03 µg/mL
